- protocolText: DRUGMATRIX: GABAA, Chloride Channel, TBOB radioligand binding (ligand: [3H] TBOB)
- Type: cell membranes, Rattus norvegicus, Wistar, Cerebral cortex, Membrane
- conditionParameters: Not Active = under 50% inhibition at 10 µM
measure: IC50

STANNOUS FLUORIDE: Not Active
POLYVINYL ALCOHOL: Not Active
INSULIN HUMAN: Not Active
THIMEROSAL: Not Active
COBALT(II) ACETYLACETONATE: Not Active

----------
- system: UniProtKB P41595
- Sequence (P41595 whole entry): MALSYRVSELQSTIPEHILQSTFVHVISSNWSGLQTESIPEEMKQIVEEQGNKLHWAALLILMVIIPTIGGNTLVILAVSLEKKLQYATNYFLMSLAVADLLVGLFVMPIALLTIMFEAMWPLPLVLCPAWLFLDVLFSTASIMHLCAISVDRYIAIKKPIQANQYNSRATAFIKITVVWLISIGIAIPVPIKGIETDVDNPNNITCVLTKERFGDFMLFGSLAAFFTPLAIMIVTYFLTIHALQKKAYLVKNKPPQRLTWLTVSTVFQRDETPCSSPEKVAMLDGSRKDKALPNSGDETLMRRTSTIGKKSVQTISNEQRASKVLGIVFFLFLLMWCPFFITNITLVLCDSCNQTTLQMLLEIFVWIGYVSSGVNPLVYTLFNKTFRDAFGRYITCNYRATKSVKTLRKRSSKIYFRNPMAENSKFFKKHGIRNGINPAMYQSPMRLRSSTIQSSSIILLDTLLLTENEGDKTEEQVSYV
- Assay type: cell membranes, CHO-K1, Membrane
- conditionParameters: read-out: Ki
measure: Ki (nM)

C[C@@H]1C[C@H]2[C@@H]3CCC4=CC(=O)C=C[C@]4(C)C3=CC[C@]2(C)[C@H]1C(=O)CN1CCN(c2cc(N3CCCC3)nc(N3CCCC3)n2)CC1 [TIRILAZAD]: 11800
CN1C[C@H](C(=O)N[C@]2(C)O[C@@]3(O)[C@@H]4CCCN4C(=O)[C@H](Cc4ccccc4)N3C2=O)C[C@@H]2c3cccc4[nH]cc(c34)C[C@H]21 [DIHYDROERGOTAMINE]: 4.33
CC(C)C[C@H]1C(=O)N2CCC[C@H]2[C@]2(O)O[C@](NC(=O)[C@@H]3C=C4c5cccc6[nH]c(Br)c(c56)C[C@H]4N(C)C3)(C(C)C)C(=O)N12 [BROMOCRIPTINE]: 5.29
OCCN1CCN(CCCN2c3ccccc3Sc3ccc(C(F)(F)F)cc32)CC1 [FLUPHENAZINE]: 25
CCc1oc2ccccc2c1C(=O)c1cc(Br)c(O)c(Br)c1 [BENZBROMARONE]: 1150
N=C(N)N/N=C/c1c(Cl)cccc1Cl [GUANABENZ]: 62
O=C(c1ccccc1Cl)N1CCC(Cc2ccccc2)CC1: 960

----------
- system: Sodium-dependent dopamine transporter (Homo sapiens, UniProt Q01959)
- Sequence (Q01959 whole entry): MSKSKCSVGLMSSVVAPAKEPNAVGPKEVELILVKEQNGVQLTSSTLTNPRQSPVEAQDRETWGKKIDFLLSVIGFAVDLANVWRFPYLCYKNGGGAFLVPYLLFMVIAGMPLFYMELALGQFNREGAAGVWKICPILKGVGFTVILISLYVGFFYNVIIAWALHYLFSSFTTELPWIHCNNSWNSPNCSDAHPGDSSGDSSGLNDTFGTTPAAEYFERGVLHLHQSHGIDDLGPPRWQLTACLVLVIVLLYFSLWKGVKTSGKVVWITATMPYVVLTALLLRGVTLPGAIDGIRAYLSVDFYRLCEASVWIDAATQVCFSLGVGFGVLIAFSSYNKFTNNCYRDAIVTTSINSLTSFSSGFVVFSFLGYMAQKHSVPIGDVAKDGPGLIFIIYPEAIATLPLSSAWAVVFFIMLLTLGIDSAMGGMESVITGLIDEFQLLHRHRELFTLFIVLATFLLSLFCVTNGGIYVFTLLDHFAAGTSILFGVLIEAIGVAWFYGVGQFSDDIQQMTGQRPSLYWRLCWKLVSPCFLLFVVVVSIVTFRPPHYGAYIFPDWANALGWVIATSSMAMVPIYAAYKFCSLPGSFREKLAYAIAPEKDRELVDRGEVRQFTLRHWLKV
- protocolText: DRUGMATRIX: Dopamine Transporter radioligand binding (ligand: [125I] RTI-55)
- Format: cell membranes, CHO-K1, Membrane
- conditionParameters: cho-k1; Not Active = under 50% inhibition at 10 µM
measure: IC50

O=c1cc(-c2ccccc2)oc2ccc3ccccc3c12 [BETA-NAPHTHOFLAVONE]: Not Active
CC(C)C[C@H]1C(=O)N2CCC[C@H]2[C@]2(O)O[C@](NC(=O)[C@@H]3C=C4c5cccc6[nH]c(Br)c(c56)C[C@H]4N(C)C3)(C(C)C)C(=O)N12 [BROMOCRIPTINE]: Not Active
O=C(O)Cc1ccc(-c2ccccc2)cc1 [FELBINAC]: Not Active
CCC[C@@H]1C[C@@H](C(=O)N[C@@H]([C@H]2O[C@H](SC)[C@H](O)[C@@H](O)[C@H]2O)[C@H](C)Cl)N(C)C1 [CLINDAMYCIN]: Not Active
CN1C[C@H](C(=O)N[C@]2(C)O[C@@]3(O)[C@@H]4CCCN4C(=O)[C@H](Cc4ccccc4)N3C2=O)C[C@@H]2c3cccc4[nH]cc(c34)C[C@H]21 [DIHYDROERGOTAMINE]: Not Active
CNC(=C[N+](=O)[O-])NCCSCc1csc(CN(C)C)n1 [NIZATIDINE]: Not Active
C[C@@H](O)[C@H]1C(=O)N2C(C(=O)O)=C(S[C@@H]3CN[C@H](C(=O)N(C)C)C3)[C@H](C)[C@H]12 [MEROPENEM]: Not Active
C[C@]12CC[C@H]3[C@@H](CCC4=CC(=O)CC[C@@]43C)[C@@H]1CC[C@@H]2O [TESTOSTERONE]: Not Active
O=c1[nH]c2ccccc2n1CCCN1CCC(n2c(=O)[nH]c3cc(Cl)ccc32)CC1 [DOMPERIDONE]: Not Active
CCc1oc2ccccc2c1C(=O)c1cc(Br)c(O)c(Br)c1 [BENZBROMARONE]: Not Active
O=C(O)C(Cl)(Cl)Cl [TRICHLOROACETIC ACID]: Not Active
Nc1nc(N)nc(NC2CC2)n1 [CYROMAZINE]: Not Active
Cc1cccc(Nc2cc(Cl)nc(SCC(=O)O)n2)c1C [PIRINIXIC ACID]: Not Active
O=C(c1ccccc1Cl)N1CCC(Cc2ccccc2)CC1: Not Active
OCCN1CCN(CCCN2c3ccccc3Sc3ccc(Cl)cc32)CC1 [PERPHENAZINE]: Not Active
O=C(O)c1cccnc1 [NIACIN]: Not Active
CCOC(=O)[C@H](CCc1ccccc1)N[C@@H](C)C(=O)N1Cc2ccccc2C[C@H]1C(=O)O: Not Active

----------
- protocolText: DRUGMATRIX: Purinergic P2X radioligand binding (ligand: [3H] alpha, beta-Methylene-ATP)
- Format: cell membranes, Oryctolagus cuniculus, New Zealand albino, Urinary bladder, Membrane
- conditionParameters: Not Active = under 50% inhibition at 10 µM
measure: Ki

N[C@@H](Cc1ccc(F)cc1)C(=O)O: Not Active
CN1C(=O)CN=C(c2ccccc2)c2cc(Cl)ccc21: Not Active
NC[C@H]1O[C@H](O[C@H]2[C@H](O)[C@@H](O[C@H]3O[C@H](CO)[C@@H](O)[C@H](N)[C@H]3O)[C@H](N)C[C@@H]2N)[C@H](N)C[C@@H]1O: Not Active
CC(=O)OCC(CCn1cnc2cnc(N)nc21)COC(C)=O: Not Active
COc1ccc(CN2CCNCC2)c(OC)c1OC: Not Active
CC(C)(Oc1ccc(C2CC2(Cl)Cl)cc1)C(=O)O (centres undefined) [CIPROFIBRATE]: Not Active
O=C(/C=C/c1ccc(O)c(O)c1)OCCc1ccccc1: Not Active
CCOC(=O)[C@H](CCc1ccccc1)N[C@@H](C)C(=O)N1CCC[C@H]1C(=O)O: Not Active
CNS(=O)(=O)Cc1ccc2[nH]cc(CCN(C)C)c2c1: Not Active
CN(C(=O)CCCOc1ccc2[nH]c(=O)ccc2c1)C1CCCCC1 [CILOSTAMIDE]: Not Active
C=C(C)[C@H]1Cc2c(ccc3c2O[C@@H]2COc4cc(OC)c(OC)cc4[C@@H]2C3=O)O1: Not Active
OCCO: Not Active
C#CCN(C)[C@H](C)Cc1ccccc1: Not Active
Nc1ccc(S(=O)(=O)Nc2ncccn2)cc1: Not Active
C[C@H]([C@](O)(Cn1cncn1)c1ccc(F)cc1F)S(C)(=O)=O: Not Active
COc1ccc(/C=C/C(=O)Nc2ccccc2C(=O)O)cc1OC: Not Active
COc1ccccc1OCC(O)CO (centres undefined): Not Active
CN[C@@H]1[C@H](O)[C@H](NC)[C@H]2O[C@@]3(O)C(=O)C[C@@H](C)O[C@H]3O[C@@H]2[C@H]1O: Not Active
CN(CCOc1ccc(CC2SC(=O)NC2=O)cc1)c1ccccn1 (centres undefined): Not Active

----------
- protocolText: DRUGMATRIX: Calcium Channel Type L, Dihydropyridine radioligand binding (ligand: [3H] Nitrendipine)
- Assay type: cell membranes, Rattus norvegicus, Wistar, Cerebral cortex, Membrane
- conditionParameters: Not Active = under 50% inhibition at 10 µM
measure: Ki

C/C=C\c1ccc(O)c(OC)c1 [ISOEUGENOL]: Not Active
CO[C@@]1(NC(=O)CSCC#N)C(=O)N2C(C(=O)O)=C(CSc3nnnn3C)CS[C@@H]21 [CEFMETAZOLE]: Not Active
CCC(=O)O[C@H]1[C@H](O[C@@H]2[C@@H](C)[C@H](O[C@H]3C[C@@](C)(OC)[C@@H](O)[C@H](C)O3)[C@@H](C)C(=O)O[C@H](CC)[C@@](C)(O)[C@H](O)[C@@H](C)C(=O)[C@H](C)C[C@@]2(C)O)O[C@H](C)C[C@@H]1N(C)C [ERYTHROMYCIN PROPIONATE]: Not Active
Nc1nc2c(c(=O)[nH]1)N(C=O)C(CNc1ccc(C(=O)N[C@@H](CCC(=O)O)C(=O)O)cc1)CN2 (stereo partly drawn) [LEUCOVORIN]: Not Active
CCS(=O)(=O)CCn1c([N+](=O)[O-])cnc1C [TINIDAZOLE]: Not Active
COc1ccc(/C=C/C(=O)Nc2ccccc2C(=O)O)cc1OC: Not Active
CC(C)(Sc1cc(C(C)(C)C)c(O)c(C(C)(C)C)c1)Sc1cc(C(C)(C)C)c(O)c(C(C)(C)C)c1 [PROBUCOL]: Not Active
OCCO [ETHYLENE GLYCOL]: Not Active
CC(=O)OCC(CCn1cnc2cnc(N)nc21)COC(C)=O [FAMCICLOVIR]: Not Active
Cc1cccc(Nc2cc(Cl)nc(SCC(=O)O)n2)c1C [PIRINIXIC ACID]: Not Active
CCC[C@@H]1C[C@@H](C(=O)N[C@@H]([C@H]2O[C@H](SC)[C@H](O)[C@@H](O)[C@H]2O)[C@H](C)Cl)N(C)C1 [CLINDAMYCIN]: Not Active
Cc1cn([C@H]2C[C@H](N=[N+]=[N-])[C@@H](CO)O2)c(=O)[nH]c1=O [ZIDOVUDINE]: Not Active
COc1ncnc(NS(=O)(=O)c2ccc(N)cc2)c1OC [SULFADOXINE]: Not Active
CCOC(=O)[C@H](CCc1ccccc1)N[C@@H](C)C(=O)N1CCC[C@H]1C(=O)O: Not Active
O=C(/C=C/c1ccc(O)c(O)c1)OCCc1ccccc1 [CAFFEIC ACID PHENETHYL ESTER]: Not Active
C#CCN(C)[C@H](C)Cc1ccccc1 [SELEGILINE]: Not Active
C[C@]12CCC(=O)C=C1CC[C@@H]1[C@@H]2[C@@H](O)C[C@@]2(C)[C@H]1CC[C@]2(O)C(=O)CO [HYDROCORTISONE]: Not Active
N[C@@H](Cc1ccc(F)cc1)C(=O)O: Not Active

Entry source: ChEMBL document CHEMBL1909046
